measured-target: T1, human glypican-3 (GPC3) (human, UniProt P51654 25-554)
T1 construct: Endogenous on JHH-7, JHH-5, HepG2 and NCI-H446 tumour cells, or transiently expressed on CHO-S cells from a pTT5 plasmid; also called hGPC3; huGPC3
protocol-description: flow cytometry on JHH-7 cells (GPC3-high);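 note: antibody binding at 4 °C for 24 h, detected with anti-human AF647 secondary, geometric mean fluorescence of live cells versus antibody concentration, fitted as specific binding with Hill slope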
Listed here: items and their measured pKd.
Kindly note that pKd refers to -log10 of the concentration in mol/L and answer with the value alone.

// worked examples, pKd included
- binder: "H18L6_LC_G34H mAb, v40205 (antibody, human IgG1, kappa, V domains shown, M3-H18L6 chains with the stated light chain point mutation, IgG1/kappa) VH: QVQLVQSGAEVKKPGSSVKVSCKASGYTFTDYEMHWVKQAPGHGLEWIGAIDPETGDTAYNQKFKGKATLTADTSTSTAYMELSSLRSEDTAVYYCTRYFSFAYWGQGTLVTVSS VL: EIVLTQSPATLSLSPGERATISCRSSQSLRHSNHNTYLQWYQQKPGQAPRLLIYKVSNRFSGVPARFSGSGSGTDFTLTISSLEPEDFAVYFCYQSKHVPYTFGGGTKVEIKR"
  pKd: 9.37
- binder: "H18L6_LC_G34S mAb, v40210 (antibody, human IgG1, kappa, V domains shown, M3-H18L6 chains with the stated light chain point mutation, IgG1/kappa) VH: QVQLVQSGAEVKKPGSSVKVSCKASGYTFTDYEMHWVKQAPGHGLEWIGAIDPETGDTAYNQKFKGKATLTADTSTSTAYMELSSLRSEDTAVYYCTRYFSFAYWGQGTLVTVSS VL: EIVLTQSPATLSLSPGERATISCRSSQSLRHSNSNTYLQWYQQKPGQAPRLLIYKVSNRFSGVPARFSGSGSGTDFTLTISSLEPEDFAVYFCYQSKHVPYTFGGGTKVEIKR"
  pKd: 9.38
- binder: "H18L6_LC_N33R mAb, v40216 (antibody, human IgG1, kappa, V domains shown, M3-H18L6 chains with the stated light chain point mutation, IgG1/kappa) VH: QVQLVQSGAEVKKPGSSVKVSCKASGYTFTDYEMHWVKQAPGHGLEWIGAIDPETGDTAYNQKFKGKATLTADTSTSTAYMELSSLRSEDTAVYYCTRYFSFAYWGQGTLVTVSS VL: EIVLTQSPATLSLSPGERATISCRSSQSLRHSRGNTYLQWYQQKPGQAPRLLIYKVSNRFSGVPARFSGSGSGTDFTLTISSLEPEDFAVYFCYQSKHVPYTFGGGTKVEIKR"
  pKd: 9.17
- binder: "H18L6_LC_N33Q mAb, v40220 (antibody, human IgG1, kappa, V domains shown, M3-H18L6 chains with the stated light chain point mutation, IgG1/kappa) VH: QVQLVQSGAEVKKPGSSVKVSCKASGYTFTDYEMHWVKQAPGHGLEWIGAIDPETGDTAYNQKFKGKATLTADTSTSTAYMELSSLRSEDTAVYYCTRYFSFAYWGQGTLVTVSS VL: EIVLTQSPATLSLSPGERATISCRSSQSLRHSQGNTYLQWYQQKPGQAPRLLIYKVSNRFSGVPARFSGSGSGTDFTLTISSLEPEDFAVYFCYQSKHVPYTFGGGTKVEIKR"
  pKd: 9.17

Now take the following binder into account.
Form field pKd, entry H18L6_LC_G34T mAb, v40209 (antibody, human IgG1, kappa, V domains shown, M3-H18L6 chains with the stated light chain point mutation, IgG1/kappa) VH: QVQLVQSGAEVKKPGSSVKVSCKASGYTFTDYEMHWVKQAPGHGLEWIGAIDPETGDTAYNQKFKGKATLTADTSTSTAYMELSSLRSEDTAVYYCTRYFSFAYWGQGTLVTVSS VL: EIVLTQSPATLSLSPGERATISCRSSQSLRHSNTNTYLQWYQQKPGQAPRLLIYKVSNRFSGVPARFSGSGSGTDFTLTISSLEPEDFAVYFCYQSKHVPYTFGGGTKVEIKR : 9.38
